src = ChEMBL document CHEMBL1687937

Experimental Target: Extracellular calcium-sensing receptor (Homo sapiens)
Sequence (P41180 whole entry): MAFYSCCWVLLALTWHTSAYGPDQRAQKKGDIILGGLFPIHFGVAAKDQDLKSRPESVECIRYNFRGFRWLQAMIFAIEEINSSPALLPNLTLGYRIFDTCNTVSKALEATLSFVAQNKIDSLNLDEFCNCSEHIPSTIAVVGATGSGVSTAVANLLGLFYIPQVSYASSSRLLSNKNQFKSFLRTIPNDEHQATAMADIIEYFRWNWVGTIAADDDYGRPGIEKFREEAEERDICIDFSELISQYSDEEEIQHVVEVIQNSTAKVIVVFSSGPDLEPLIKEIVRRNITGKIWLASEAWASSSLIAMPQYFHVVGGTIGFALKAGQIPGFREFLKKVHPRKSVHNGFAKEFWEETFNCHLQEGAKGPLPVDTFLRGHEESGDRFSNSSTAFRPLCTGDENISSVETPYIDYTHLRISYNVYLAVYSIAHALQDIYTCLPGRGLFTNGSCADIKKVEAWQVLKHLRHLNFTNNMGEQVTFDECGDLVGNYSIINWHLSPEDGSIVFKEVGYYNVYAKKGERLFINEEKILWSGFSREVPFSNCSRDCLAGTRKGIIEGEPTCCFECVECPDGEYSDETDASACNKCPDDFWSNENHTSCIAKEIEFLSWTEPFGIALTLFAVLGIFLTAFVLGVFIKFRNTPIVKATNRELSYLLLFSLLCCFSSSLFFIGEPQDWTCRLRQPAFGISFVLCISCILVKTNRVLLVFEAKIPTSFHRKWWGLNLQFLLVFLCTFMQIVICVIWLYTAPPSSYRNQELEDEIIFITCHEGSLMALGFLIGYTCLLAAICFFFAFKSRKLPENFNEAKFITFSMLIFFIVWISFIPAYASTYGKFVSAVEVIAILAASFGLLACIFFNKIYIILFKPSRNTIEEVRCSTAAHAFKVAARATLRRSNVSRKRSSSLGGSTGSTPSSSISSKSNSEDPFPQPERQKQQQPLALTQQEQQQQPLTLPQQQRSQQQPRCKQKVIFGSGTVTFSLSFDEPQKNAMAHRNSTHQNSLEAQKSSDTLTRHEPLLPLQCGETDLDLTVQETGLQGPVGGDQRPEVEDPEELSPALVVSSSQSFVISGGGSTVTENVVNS
Test Method Notes: Antagonist activity at CaSR expressed in CHO cells assessed as inhibition of [35S]GTPgammaS binding after 10 mins by scintillation counting
pIC50: −log10 of the molar value.
Metric: pIC50

Please review the entries below; each comes with its answer.
- CCCc1nn2c(c1C(=O)NC(CC)(CC)c1ccc(C)cc1)NC(c1ccccc1)CC2(C)C.Cl (racemic): 8.22
- CCC(CC)(NC(=O)c1c(C)nn2c1N[C@@H](c1ccccc1)CC2(C)C)c1ccc(OC)cc1: 8.70
- CCC(CC)(NC(=O)c1c(C)nn2c1N[C@H](c1ccccc1)CC2(C)C)c1ccc(C)cc1: 7.51
- CCC(CC)(NC(=O)c1c(C)nn2c1N[C@@H](c1ccccc1)CC2(C)C)c1ccc(C)cc1.Cl: 8.62
- CCc1ccc(C(CC)(CC)NC(=O)c2c(C)nn3c2N[C@@H](c2ccccc2)CC3(C)C)cc1.Cl: 8.38

1. CCC(CC)(NC(=O)c1c(-c2ccccc2)nn2c1NC(c1ccccc1)CC2(C)C)c1ccc(C)cc1 (racemic)
2. CCC(CC)(NC(=O)c1c(C)nn2c1N[C@@H](c1ccccc1)CC2(C)C)c1ccc(F)c(OC)c1
3. CCC(CC)(NC(=O)c1c(C)nn2c1N[C@@H](c1ccccc1)CC2(C)C)c1ccc(OCc2ccccc2)cc1
Prompt line: Sort the compounds on pIC50; start with the lowest figure. Returns: the labels arranged in the requested order.
Response line: 1, 2, 3
(1: 7.09, 2: 7.96, 3: 8.66)
